experiment: Novel Modifiers of Survival Motor Neuron (SMN) Protein: Gene Identification via Genome-wide siRNA Screen; conditions: HEK293T SMN2-luciferase reporter, siRNA knockdown, 72 h; actives lie on both sides;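 further: luminescence tracks full-length SMN protein made from the SMN2 reporter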
About 1,400 (4.5%) of roughly 31,000 sequences were called active.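 How the source made its calls: active means median seed-adjusted z-score above 1 or below -1; inactive means the rest.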 The sample as a whole holds a higher share of actives than the screen did.
Tick one outcome: yes (1) for active, no (0) for inactive

Input line: What classification did CCAGAAUGCCCAUAUCACATT against RS1 end up with in this test?
Output line: no (0)

Input line: What classification did CACCUACUGUAGAGGUGAATT against GPRC6A end up with in this test?
Output line: no (0)

Input line: What classification did CAGUUGUACUGGACGGCUATT against PALLD end up with in this test?
Output line: no (0)

Input line: What classification did GUAUCAGCAUUGAUAGAUATT against GPR21 end up with in this test?
Output line: no (0)

Input line: What classification did GACGAAUCACUGCAGUUUATT against GOSR2 end up with in this test?
Output line: yes (1)

Input line: What classification did GAUUUCUAGGCAUCCCGUATT against ARSA end up with in this test?
Output line: no (0)

* * *

assay: Novel Modifiers of Survival Motor Neuron (SMN) Protein: Gene Identification via Genome-wide siRNA Screen; settings: HEK293T SMN2-luciferase reporter, siRNA knockdown, 72 h; actives lie on both sides;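 further: luminescence tracks full-length SMN protein made from the SMN2 reporter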
In all, about 31,000 sequences went through this assay and about 1,400 (4.5%) were called active. The entries come from a sample that favours actives as a whole.
Recorded median seed-adjusted z-score, one value per entry.
Please give only the number in your answer, with no unit.

Observe how each entry below is paired with its result.
{"RESIDUE_CODES": "GCAUCAACAAUAUCCGGGATT against FARSA", "RECORDED_MEASUREMENT": -0.158}
{"RESIDUE_CODES": "GCAUCGACAUGUCCUGGGATT against PUF60", "RECORDED_MEASUREMENT": 2.26}
{"RESIDUE_CODES": "AGUUUAAUCGGAAAGCCUUTT against NANS", "RECORDED_MEASUREMENT": -1.54}

Input line: Please give measured median seed-adjusted z-score of the following entry: ACUUCAACAUGACCAAAAATT against PPARD
Output line: 0.0283

Input line: Please give measured median seed-adjusted z-score of the following entry: CGAUUAGAAAUCAACAUGATT against MLKL
Output line: 0

* * *

test: Novel Modifiers of Survival Motor Neuron (SMN) Protein: Gene Identification via Genome-wide siRNA Screen; details: HEK293T SMN2-luciferase reporter, siRNA knockdown, 72 h; actives lie on both sides;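 further: luminescence tracks full-length SMN protein made from the SMN2 reporter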
The whole screen tested about 31,000 sequences, of which about 1,400 (4.5%) were called active.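 Rule for the calls: active = median seed-adjusted z-score above 1 or below -1; inactive = the rest.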 The entries come from a sample that favours actives as a whole.
Tick one outcome: T = active, F = inactive

Before answering, review these 5 worked examples.
{"RESIDUE_CODES": "GCUAUUUGGUUAUCCUUAUTT against ATP6V0A1", "GROUP_LABEL": "F"}
{"RESIDUE_CODES": "GAAUGUAACUUCACAACCATT against ZHX2", "GROUP_LABEL": "F"}
{"RESIDUE_CODES": "GCGGGAGCAUUAUCUCAAATT against ZNF341", "GROUP_LABEL": "F"}
{"RESIDUE_CODES": "CCAAUGCCCAGAUUAUGUATT against CELSR2", "GROUP_LABEL": "F"}
{"RESIDUE_CODES": "GGUCAAAGAGUUAUAGAUUTT against MKKS", "GROUP_LABEL": "T"}

Input line: What classification did CAUGUACUAUUUUCAGUAUTT against SETD8 end up with in this test?
Output line: T

Input line: What classification did GGAAGUUGUUCAACGAGAUTT against MLPH end up with in this test?
Output line: T

Input line: What classification did GACCUGCCGUGAUAUCGUUTT against PSMA3 end up with in this test?
Output line: F

Input line: What classification did GGAUGUUAGUAAACUCUCUTT against PSMA4 end up with in this test?
Output line: F

Input line: What classification did GAGUCUGUUUUACGACAAATT against TMPRSS11D end up with in this test?
Output line: F

Input line: What classification did GCCGGCCUGUGAAAUAUGATT against MAP3K3 end up with in this test?
Output line: F

Input line: What classification did GGACCAUCCAGCUUCUGGATT against GALE end up with in this test?
Output line: F

Input line: What classification did GCUUUGAGAUUUUCGAGGATT against MYO1B end up with in this test?
Output line: F

Input line: What classification did GGGUAUCACCUCACGCUUATT against ABCA12 end up with in this test?
Output line: F

Input line: What classification did CCCUUACCCAAAACGAGAATT against CDK8 end up with in this test?
Output line: T

Input line: What classification did CCAUCAAACUUGCAUCCCUTT against ISX end up with in this test?
Output line: T

Input line: What classification did CCUCCGAAUUCUCAACAUATT against CSNK1E end up with in this test?
Output line: F

Input line: What classification did GAACGUAGAAUGAAAGUAATT against PSMC1 end up with in this test?
Output line: T

Input line: What classification did CCACCACAGAUUUUCCUAUTT against CD300A end up with in this test?
Output line: F

Input line: What classification did AGUACGGACAGAUCUCUGATT against CIRBP end up with in this test?
Output line: F

Input line: What classification did GCAAGAAUCCCUAAAGCAUTT against BAG2 end up with in this test?
Output line: F

Input line: What classification did GGGUUUGCACUGAAACGAATT against CIR end up with in this test?
Output line: F

Input line: What classification did ACAUUUAGGUUGUAAACCATT against PLA2G12A end up with in this test?
Output line: F
